- Tested On: full-length activated BTK (wildtype) (Homo sapiens (Human))
- Sequence (Q06187 whole entry): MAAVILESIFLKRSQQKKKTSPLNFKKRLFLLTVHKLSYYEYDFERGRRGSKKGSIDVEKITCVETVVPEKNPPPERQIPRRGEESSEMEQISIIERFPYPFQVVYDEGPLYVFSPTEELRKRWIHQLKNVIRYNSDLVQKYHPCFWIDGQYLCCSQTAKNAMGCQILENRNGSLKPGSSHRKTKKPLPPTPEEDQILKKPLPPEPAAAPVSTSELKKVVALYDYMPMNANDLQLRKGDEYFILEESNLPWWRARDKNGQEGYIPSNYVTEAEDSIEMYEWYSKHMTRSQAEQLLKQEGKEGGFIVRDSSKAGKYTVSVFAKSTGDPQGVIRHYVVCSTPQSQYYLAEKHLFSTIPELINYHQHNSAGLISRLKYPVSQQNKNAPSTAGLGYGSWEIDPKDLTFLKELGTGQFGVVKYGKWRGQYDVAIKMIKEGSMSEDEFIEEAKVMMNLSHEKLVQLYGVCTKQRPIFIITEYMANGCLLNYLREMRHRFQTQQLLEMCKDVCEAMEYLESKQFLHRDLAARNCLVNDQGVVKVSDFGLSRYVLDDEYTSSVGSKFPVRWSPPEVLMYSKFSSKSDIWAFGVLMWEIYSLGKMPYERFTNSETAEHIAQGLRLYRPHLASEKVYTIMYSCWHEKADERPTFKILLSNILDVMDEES
- Assay Method Text: AlphaScreen assay, wild-type BTK
- Procedure: The activated BTK was frozen in 50 μl aliquots (125-150 μg/ml). BTK activity was assayed using a PLCγ2-derived biotinylated peptide substrate (biotin-[…]-OH) and AlphaScreen™ (Amplified Luminescent Proximity Homogeneous Assay) technology. The extent of peptide phosphorylation was determined by using acceptor beads conjugated to phosphotyrosine antibody that recognized the phosphorylated peptide and donor beads conjugated to streptavidin that binds to the biotin on the peptide. […]
Please provide measured IC50 for the entries that follow.
Enter your answer as a number in nM; do not include the unit.

Entry O=C(Nc1cccc(C(=O)c2c[nH]c3ncnc(N[C@@H]4CC[C@@H](CO)OC4)c23)c1)c1ccccn1 [Compound I-643] has what IC50?
269

Entry CS(=O)(=O)N1CC(Nc2ncnc3[nH]cc(C(=O)c4ccc(Oc5ccccc5)cc4Cl)c23)CCC1CO (racemic) [Compound I-653] has what IC50?
10

Entry O=C(c1ccc(C(=O)N2CCCCC2)cc1Cl)c1c[nH]c2ncnc(N[C@@H]3CC[C@@H](CO)OC3)c12 [Compound I-617] has what IC50?
16.2
